- Tested on: LOC_OS06G22820-cb001;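 also: purified Escherichia coli-expressed rice kinase domain construct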
- Sequence (whole entry): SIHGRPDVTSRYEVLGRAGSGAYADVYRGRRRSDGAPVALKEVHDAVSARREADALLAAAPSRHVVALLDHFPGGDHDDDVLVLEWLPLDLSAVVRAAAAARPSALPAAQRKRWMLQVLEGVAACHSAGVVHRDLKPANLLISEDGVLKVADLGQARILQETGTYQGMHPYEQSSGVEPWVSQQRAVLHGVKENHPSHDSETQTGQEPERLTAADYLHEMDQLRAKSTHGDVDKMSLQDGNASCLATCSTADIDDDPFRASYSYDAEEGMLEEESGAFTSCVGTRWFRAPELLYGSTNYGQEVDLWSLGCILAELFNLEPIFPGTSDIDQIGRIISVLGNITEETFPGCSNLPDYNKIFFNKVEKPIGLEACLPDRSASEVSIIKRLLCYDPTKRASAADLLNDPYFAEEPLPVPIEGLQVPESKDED
- Protocol Details: thermal shift delta Tm vs DMSO control; higher = stronger stabilization (binding)
- Details: 12.5 µM; protein concentration 2 µM
Counter-ions that a name gives are not always drawn.

Molecule	thermal shift delta Tm, °C
Cc1cccc(CC(=O)N2CCc3c2ccc(-c2cn(C)c4ncnc(N)c24)c3F)n1	0.75
Cc1cc(O)c(-c2ccc([C@@H](C)CN)cc2)c2c1[nH]c(=O)c1sccc12 [OTS514 hydrochloride]	0.65
CCN(CC)CCCC(C)Nc1nc(C)cc(Nc2ccc3nc(C)cc(N)c3c2)n1 (stereo not drawn)	0.19
CCn1c(=O)c(-c2ccc(-c3cncs3)cc2Cl)cc2cnc(Nc3ccc(N4CCN(C)CC4)cc3)nc21	0.67
Cn1cnc2c(F)c(Nc3ccc(Br)cc3Cl)c(C(=O)NOCCO)cc21	0.61
CN1CCN(c2ccc(OC(F)(F)F)c(Nc3ncc4c(n3)-c3c(c(C(N)=O)nn3CCO)CC4)c2)CC1	0.49
NC[C@@](O)(c1ccc(Cl)cc1)c1ccc(-c2cn[nH]c2)cc1	0.65
CNC(=O)c1ccc(C)c(-n2c(C)cc(OCc3ccc(F)cc3F)c(Br)c2=O)c1	0.38
COc1cc2ncnc(Nc3ccc(F)c(Cl)c3)c2cc1OCCCN1CCOCC1 [Gefitinib (ZD1839)]	0.63
Cc1ncc(CO)c(CO)c1O	0.67
O=C(NOC[C@H](O)CO)c1ccc(F)c(F)c1Nc1ccc(I)cc1F	1.03
Cc1cc(CS(=O)(=O)c2ccccc2)cc(OCc2ccc(CN3CCC[C@@H]3CO)cc2)c1	0.68
N#Cc1c(Oc2ccc(F)c(NC(=O)Cc3cccc(C(F)(F)F)c3)c2)ccc2nc(NC(=O)C3CC3)sc12	0.74
O=C(NC[C@H](O)CO)c1ccncc1Nc1ccc(I)cc1F	0.62
CN1CCN(S(=O)(=O)c2ccc(-c3cnc(N)c(C(=O)Nc4cccnc4)n3)cc2)CC1	0.9
O=C(Nc1c[nH]nc1-c1nc2ccc(CN3CCOCC3)cc2[nH]1)NC1CC1	0.86
Cc1ccc(Nc2nccc(N(C)c3ccc4c(C)n(C)nc4c3)n2)cc1S(N)(=O)=O [Pazopanib]	0.36
CC1=C(C(=O)Nc2ccc3[nH]ncc3c2)C(c2ccc(F)cc2)NC(=O)N1 (stereo not drawn)	0.88
Cc1ccc(NC(=O)c2ccc(CN3CCN(C)CC3)cc2)cc1Nc1nccc(-c2cccnc2)n1 [Imatinib (STI571)]	0.22
Cn1cnc(N)c2ncnc1-2	0.64
COc1nccc(-c2c(-c3ccc(F)cc3)ncn2C2CCC(O)CC2)n1 (stereo not drawn)	0.43
Cc1c(C(=O)Nc2ccc(Oc3ccnc4[nH]cc(-c5ccccc5)c34)c(F)c2)c(=O)n(-c2ccc(F)cc2)n1C	0.86
c1ccc(-c2[nH]ncc2-c2ccnc3ccccc23)nc1	0.08
COc1cc(N2CCN(C)CC2)ccc1Nc1ncc2c(n1)N(C)c1ccccc1C(=O)N2	0.34
N#C/C(=C(/N)Sc1ccc(N)cc1)c1ccccc1C(F)(F)F	0.8
N[C@@H]1CCCN(c2c(/C=C3\SC(=O)NC3=O)cccc2-c2ccccc2)C1	0.41
CN1CC[C@H](c2c(O)cc(O)c3c(=O)cc(-c4ccccc4Cl)oc23)[C@H](O)C1 [Flavopiridol HCl]	1.71
O=C(NCCO)c1cccc(-c2cc(Nc3ccc(OC(F)(F)F)cc3)ncn2)c1	0.84
COc1ccc(CCNCc2ccc(OCc3ccc(Cl)nc3)c(OC)c2)cc1OC	0.26
C#Cc1cccc(Nc2ncnc3cc(OC)c(OCCCCCCC(=O)NO)cc23)c1	0.49
O=c1cc(-c2ccccc2)oc2c(O)c(O)ccc12 [7,8-Dihydroxyflavone]	1.1
CCc1nc(C(N)=O)c(Nc2ccc(N3CCC(N4CCN(C)CC4)CC3)c(OC)c2)nc1NC1CCOCC1	0.74
COc1cc2ncnc(Nc3ccc(Cl)cc3F)c2cc1OC	0.69
Cn1cc(-c2ccc3ncc(Cc4ccc5ncccc5c4)n3n2)cn1	0.5
COc1ccc(F)c(F)c1C(=O)c1cnc(NC2CCN(S(C)(=O)=O)CC2)nc1N	0.23
C=CC(=O)N[C@H]1CCOC[C@H]1Nc1ncc2cc(-c3c(Cl)c(OC)cc(OC)c3Cl)ccc2n1	0.4
O=c1cc(N2CCOCC2)oc2c1ccc1ccccc12	0.23
CC(C)c1ccc2oc3nc(N)c(C(=O)O)cc3c(=O)c2c1	0.56

Hello, the source for this data is the supplement of paper PMC9694430, in case you need it.
